test system: clinical MDR Staphylococcus epidermidis isolates; assay: MIC, broth microdilution, 81 clinical MDR strains; type: cell-based; settings: Staphylococcus epidermidis, clinical strain 42 (Table S2); read-out: MIC
Endpoint name: MIC

Recorded MIC, per entry:
- Compound: "O=S(=O)(NC1CCN(CCC(Oc2ccc(C(F)(F)F)cc2)c2cccs2)CC1)c1cccc(Cl)c1 (stereo not drawn) [Compound 14]"
  Endpoint name: "MIC"
  Result: "12.5 µg/mL"
- Compound: "O=S(=O)(NC1CCN(CCC(Oc2ccc(C(F)(F)F)cc2)c2ccccc2)CC1)c1cccc(Cl)c1 (stereo not drawn) [Compound 12]"
  Endpoint name: "MIC"
  Result: "50 µg/mL"

Query string: Which value of MIC has been reported for O=S(=O)(NC1CCN(CCC(Oc2ccc(C(F)(F)F)cc2)c2cccs2)CC1)c1cccc(C(F)(F)F)c1 (stereo not drawn) [Compound 21] in the records?
Result string: 6.25 µg/mL

Query string: Which value of MIC has been reported for O=C(Nc1cccc(Cl)c1)NC1CCN(CCC(Oc2ccc(C(F)(F)F)cc2)c2cccs2)CC1 (stereo not drawn) [Compound 25] in the records?
Result string: 0.8 µg/mL

Query string: Which value of MIC has been reported for CC(=O)NC[C@H]1CN(c2ccc(N3CCOCC3)c(F)c2)C(=O)O1 [linezolid, reference compound] in the records?
Result string: 1.6 µg/mL

Query string: Which value of MIC has been reported for O=S(=O)(NC1CCN(CCC(Oc2ccc(C(F)(F)F)cc2)c2cccs2)CC1)c1cccc(Br)c1 (stereo not drawn) [Compound 18] in the records?
Result string: 1.6 µg/mL

* * *

test system: biofilm-producing Staphylococcus epidermidis strains; assay: Inhibition of biofilm formation (MBIC, resazurin); format: cell-based; details: clinical strain 19 (Table S4)
Endpoint name: MBIC (µg/mL)
Output spec: scalar in µg/mL, unitless text.

Recorded MBIC, per entry:
- Compound: "O=C(Nc1cccc(Cl)c1)NC1CCN(CCC(Oc2ccc(C(F)(F)F)cc2)c2cccs2)CC1 (stereo not shown)"
  Target of assay: "biofilm-producing Staphylococcus epidermidis strains"
  Numeric value: 15.6
- Compound: "CC(=O)NC[C@H]1CN(c2ccc(N3CCOCC3)c(F)c2)C(=O)O1 [linezolid, reference compound]"
  Target of assay: "biofilm-producing Staphylococcus epidermidis strains"
  Numeric value: 25
- Compound: "O=S(=O)(NC1CCN(CCC(Oc2ccc(C(F)(F)F)cc2)c2cccs2)CC1)c1cccc(Cl)c1 (stereo not shown)"
  Target of assay: "biofilm-producing Staphylococcus epidermidis strains"
  Numeric value: 31.25

Moving on to the next compound.
Query string: Which value of MBIC has been reported for O=S(=O)(NC1CCN(CCC(Oc2ccc(C(F)(F)F)cc2)c2ccccc2)CC1)c1cccc(Cl)c1 (stereo not shown) in the records?
Result string: 31.25

* * *

Recorded measurements of MBIC, one per entry
test system: biofilm-producing Staphylococcus epidermidis strains; assay: Inhibition of biofilm formation (MBIC, resazurin); assay type: cell-based; details: clinical strain 27 (Table S4)
Output spec: scalar in µg/mL, unitless text.

Recorded MBIC, per entry:
- Compound: "CC(=O)NC[C@H]1CN(c2ccc(N3CCOCC3)c(F)c2)C(=O)O1 [linezolid, reference compound]"
  Units text: "µg/mL"
  MBIC: 50
- Compound: "O=C(Nc1cccc(Cl)c1)NC1CCN(CCC(Oc2ccc(C(F)(F)F)cc2)c2cccs2)CC1 (stereo not shown)"
  Units text: "µg/mL"
  MBIC: 31.25

Query string: Which value of MBIC has been reported for O=S(=O)(NC1CCN(CCC(Oc2ccc(C(F)(F)F)cc2)c2cccs2)CC1)c1cccc(Cl)c1 (stereo not shown) in the records?
Result string: 250

Query string: Which value of MBIC has been reported for O=S(=O)(NC1CCN(CCC(Oc2ccc(C(F)(F)F)cc2)c2ccccc2)CC1)c1cccc(Cl)c1 (stereo not shown) in the records?
Result string: 250

* * *

system: biofilm-producing Staphylococcus epidermidis strains; assay: Biofilm eradication (MBEC Assay Kit); assay type: cell-based; conditions: clinical strain 33 (Table S4)
Endpoint name: MBEC (µg/mL)
Output spec: scalar in µg/mL, unitless text.

Recorded MBEC, per entry:
- Compound: "O=S(=O)(NC1CCN(CCC(Oc2ccc(C(F)(F)F)cc2)c2cccs2)CC1)c1cccc(Cl)c1 (stereo not shown) [Compound 14]"
  MBEC, µg/mL: 125
- Compound: "O=S(=O)(NC1CCN(CCC(Oc2ccc(C(F)(F)F)cc2)c2ccccc2)CC1)c1cccc(Cl)c1 (stereo not shown) [Compound 12]"
  MBEC, µg/mL: 125

Query string: Which value of MBEC has been reported for CC(=O)NC[C@H]1CN(c2ccc(N3CCOCC3)c(F)c2)C(=O)O1 [linezolid, reference compound] in the records?
Result string: 50

Query string: Which value of MBEC has been reported for O=C(Nc1cccc(Cl)c1)NC1CCN(CCC(Oc2ccc(C(F)(F)F)cc2)c2cccs2)CC1 (stereo not shown) [Compound 25] in the records?
Result string: 31.25

* * *

Recorded measurements of MIC, one per entry
tested on: clinical MDR Staphylococcus epidermidis isolates; test: MIC, broth microdilution, 81 clinical MDR strains; assay type: cell-based; settings: Staphylococcus epidermidis, clinical strain 59 (Table S2); read-out: MIC
Output spec: scalar in µg/mL, unitless text.

Recorded MIC, per entry:
- Compound: "O=S(=O)(NC1CCN(CCC(Oc2ccc(C(F)(F)F)cc2)c2cccs2)CC1)c1cccc(Br)c1 (stereo not drawn)"
  MIC, µg/mL: 50
- Compound: "O=S(=O)(NC1CCN(CCC(Oc2ccc(C(F)(F)F)cc2)c2cccs2)CC1)c1cccc(Cl)c1 (stereo not drawn)"
  MIC, µg/mL: 50
- Compound: "O=S(=O)(NC1CCN(CCC(Oc2ccc(C(F)(F)F)cc2)c2cccs2)CC1)c1cccc(C(F)(F)F)c1 (stereo not drawn)"
  MIC, µg/mL: 50
- Compound: "O=C(Nc1cccc(Cl)c1)NC1CCN(CCC(Oc2ccc(C(F)(F)F)cc2)c2cccs2)CC1 (stereo not drawn)"
  MIC, µg/mL: 3.12

Query string: Which value of MIC has been reported for O=S(=O)(NC1CCN(CCC(Oc2ccc(C(F)(F)F)cc2)c2ccccc2)CC1)c1cccc(Cl)c1 (stereo not drawn) in the records?
Result string: 50

Query string: Which value of MIC has been reported for CC(=O)NC[C@H]1CN(c2ccc(N3CCOCC3)c(F)c2)C(=O)O1 [linezolid, reference compound] in the records?
Result string: 0.8

* * *

Recorded measurements of MBIC, one per entry
tested on: biofilm-producing Staphylococcus epidermidis strains; experiment: Inhibition of biofilm formation (MBIC, resazurin); format: cell-based; conditions: clinical strain 29 (Table S4)
Output spec: scalar in µg/mL, unitless text.

Recorded MBIC, per entry:
- Compound: "O=S(=O)(NC1CCN(CCC(Oc2ccc(C(F)(F)F)cc2)c2ccccc2)CC1)c1cccc(Cl)c1 (stereo not shown)"
  Target of assay: "biofilm-producing Staphylococcus epidermidis strains"
  Units text: "µg/mL"
  Numeric value: 62.5
- Compound: "O=S(=O)(NC1CCN(CCC(Oc2ccc(C(F)(F)F)cc2)c2cccs2)CC1)c1cccc(Cl)c1 (stereo not shown)"
  Target of assay: "biofilm-producing Staphylococcus epidermidis strains"
  Units text: "µg/mL"
  Numeric value: 62.5

Query string: Lab note: need MBIC with biofilm-producing Staphylococcus epidermidis strains for entry O=C(Nc1cccc(Cl)c1)NC1CCN(CCC(Oc2ccc(C(F)(F)F)cc2)c2cccs2)CC1 (stereo not shown) , please look it up.
Result string: 15.6

Query string: Lab note: need MBIC with biofilm-producing Staphylococcus epidermidis strains for entry CC(=O)NC[C@H]1CN(c2ccc(N3CCOCC3)c(F)c2)C(=O)O1 [linezolid, reference compound] , please look it up.
Result string: 25

* * *

Recorded measurements of MIC, one per entry
system: clinical MDR Staphylococcus epidermidis isolates; assay: MIC, broth microdilution, 81 clinical MDR strains; type: cell-based; conditions: Staphylococcus epidermidis, clinical strain 35 (Table S2); read-out: MIC
Output spec: scalar in µg/mL, unitless text.

- Molecule: "O=S(=O)(NC1CCN(CCC(Oc2ccc(C(F)(F)F)cc2)c2cccs2)CC1)c1cccc(Cl)c1 (stereo not drawn) [Compound 14]"
  MIC [µg/mL]: 12.5
- Molecule: "CC(=O)NC[C@H]1CN(c2ccc(N3CCOCC3)c(F)c2)C(=O)O1 [linezolid, reference compound]"
  MIC [µg/mL]: 1.6
- Molecule: "O=S(=O)(NC1CCN(CCC(Oc2ccc(C(F)(F)F)cc2)c2cccs2)CC1)c1cccc(C(F)(F)F)c1 (stereo not drawn) [Compound 21]"
  MIC [µg/mL]: 25
- Molecule: "O=S(=O)(NC1CCN(CCC(Oc2ccc(C(F)(F)F)cc2)c2cccs2)CC1)c1cccc(Br)c1 (stereo not drawn) [Compound 18]"
  MIC [µg/mL]: 1.6
- Molecule: "O=C(Nc1cccc(Cl)c1)NC1CCN(CCC(Oc2ccc(C(F)(F)F)cc2)c2cccs2)CC1 (stereo not drawn) [Compound 25]"
  MIC [µg/mL]: 1.6

Moving on to the next molecule.
Query string: Which value of MIC has been reported for O=S(=O)(NC1CCN(CCC(Oc2ccc(C(F)(F)F)cc2)c2ccccc2)CC1)c1cccc(Cl)c1 (stereo not drawn) [Compound 12] in the records?
Result string: 50
